Ref: paper PMC5365645

Assay: in vivo
Parameters: species or system female CD-1 mice
Conditions: female, CD-1, mouse, iv, 1 mg/kg
Protocol: The pharmacokinetics and bioavailability of SCY-078 were evaluated in uninfected mouse, rat, and dog after p.o. and i.v. administration. The in vivo phases of the PK studies were performed at either […] […] The peak concentration (Cmax), the time to maximum concentration (Tmax), the half-life, and the AUC were determined from composite mean plasma concentration-time data for rodents and individual plasma concentration-time data for dogs. […]
measuredProperty: AUC(0-inf) (ng·h/mL)
Field: numeric (ng·h/mL). Do not append units.

Given the molecule CC(C)[C@@H](C)[C@@]1(C)CC[C@]2(C)[C@H]3CC[C@@H]4[C@@]5(COC[C@@]4(C)[C@@H](OC[C@](C)(N)C(C)(C)C)[C@H](n4ncnc4-c4ccncc4)C5)C3=CC[C@@]2(C)[C@@H]1C(=O)O , write its reported AUC(0-inf).
1460

###

Assay: in vivo
Set-up: species or system beagle dogs
Settings: both sexes, beagle, dog, iv, 5 mg/kg
Description: The pharmacokinetics and bioavailability of SCY-078 were evaluated in uninfected mouse, rat, and dog after p.o. and i.v. administration. The in vivo phases of the PK studies were performed at either […] […] The peak concentration (Cmax), the time to maximum concentration (Tmax), the half-life, and the AUC were determined from composite mean plasma concentration-time data for rodents and individual plasma concentration-time data for dogs. […]
measuredProperty: AUC(0-t) (ng·h/mL)
# unit: ng·h/mL | format: bare number

For CC(C)[C@@H](C)[C@@]1(C)CC[C@]2(C)[C@H]3CC[C@@H]4[C@@]5(COC[C@@]4(C)[C@@H](OC[C@](C)(N)C(C)(C)C)[C@H](n4ncnc4-c4ccncc4)C5)C3=CC[C@@]2(C)[C@@H]1C(=O)O , write its AUC(0-t).
10400

###

Test: In vitro metabolic stability in hepatic microsomes
Type: in vitro ADME, dog
Conditions: pooled liver microsomes; female dog liver microsomes
measuredProperty: microsomal CLint at 1 μM (µL/min/mg)
Numeric only. Scale: µL/min/mg

Answer with reported microsomal CLint at 1 μM of CC(C)[C@@H](C)[C@@]1(C)CC[C@]2(C)[C@H]3CC[C@@H]4[C@@]5(COC[C@@]4(C)[C@@H](OC[C@](C)(N)C(C)(C)C)[C@H](n4ncnc4-c4ccncc4)C5)C3=CC[C@@]2(C)[C@@H]1C(=O)O
15

###

Assay: in vivo
Parameters: species or system beagle dogs
Conditions: both sexes, beagle, dog, po, 20 mg/kg
measuredProperty: AUC(0-inf) (ng·h/mL)
Write down the numeric answer in ng·h/mL and omit the unit.

State, in one line, measured AUC(0-inf) of CC(C)[C@@H](C)[C@@]1(C)CC[C@]2(C)[C@H]3CC[C@@H]4[C@@]5(COC[C@@]4(C)[C@@H](OC[C@](C)(N)C(C)(C)C)[C@H](n4ncnc4-c4ccncc4)C5)C3=CC[C@@]2(C)[C@@H]1C(=O)O [SCY-078]
16000

###

Assay: Volume of distribution after i.v. administration
Conditions: in vivo, iv, Rhesus monkey, no source reference printed, read-out: Vd ss
measuredProperty: Vd (L/kg)
# number only, unit L/kg dropped from output

Please supply the value of reported Vd for the item CC(C)[C@@H](C)[C@@]1(C)CC[C@]2(C)[C@H]3CC[C@@H]4[C@@]5(COC[C@@]4(C)[C@@H](OC[C@](C)(N)C(C)(C)C)[C@H](n4ncnc4-c4ccncc4)C5)C3=CC[C@@]2(C)[C@@H]1C(=O)O
4.4

###

Test: in vivo
Parameters: species or system mice, rats, and dogs
Settings: both sexes, CD-1, Wistar Han, mouse, rat, po
Protocol: The pharmacokinetics and bioavailability of SCY-078 were evaluated in uninfected mouse, rat, and dog after p.o. and i.v. administration. The in vivo phases of the PK studies were performed at either […] […] The peak concentration (Cmax), the time to maximum concentration (Tmax), the half-life, and the AUC were determined from composite mean plasma concentration-time data for rodents and individual plasma concentration-time data for dogs. […]
measuredProperty: half-life

Name the recorded half-life of the compound listed here: CC(C)[C@@H](C)[C@@]1(C)CC[C@]2(C)[C@H]3CC[C@@H]4[C@@]5(COC[C@@]4(C)[C@@H](OC[C@](C)(N)C(C)(C)C)[C@H](n4ncnc4-c4ccncc4)C5)C3=CC[C@@]2(C)[C@@H]1C(=O)O [SCY-078]
7.8 to 9.1 h

###

Test: In vitro metabolic stability in hepatic microsomes
Assay type: in vitro ADME, dog
Settings: both sexes, pooled liver microsomes; dog liver microsomes, summary of male and female
measuredProperty: half-life at 1 μM

Respond only with half-life at 1 μM recorded for CC(C)[C@@H](C)[C@@]1(C)CC[C@]2(C)[C@H]3CC[C@@H]4[C@@]5(COC[C@@]4(C)[C@@H](OC[C@](C)(N)C(C)(C)C)[C@H](n4ncnc4-c4ccncc4)C5)C3=CC[C@@]2(C)[C@@H]1C(=O)O
≥ 29 min

###

Experiment: in vivo
Parameters: species or system Wistar Han rats
Details: both sexes, Wistar Han, rat, iv, 5 mg/kg
measuredProperty: AUC(0-inf) (ng·h/mL)
A number alone suffices; assume ng·h/mL.

Answer with reported AUC(0-inf) of CC(C)[C@@H](C)[C@@]1(C)CC[C@]2(C)[C@H]3CC[C@@H]4[C@@]5(COC[C@@]4(C)[C@@H](OC[C@](C)(N)C(C)(C)C)[C@H](n4ncnc4-c4ccncc4)C5)C3=CC[C@@]2(C)[C@@H]1C(=O)O
11700

###

Assay: In vitro metabolic stability in hepatic microsomes
Assay type: in vitro ADME, dog
Conditions: male dog liver microsomes, 1 μM; read-out: % remaining after 30 min
measuredProperty: remaining at 0.5 h, 1 µM (%)
Value expressed in %; do not type the unit.

Item CC(C)[C@@H](C)[C@@]1(C)CC[C@]2(C)[C@H]3CC[C@@H]4[C@@]5(COC[C@@]4(C)[C@@H](OC[C@](C)(N)C(C)(C)C)[C@H](n4ncnc4-c4ccncc4)C5)C3=CC[C@@]2(C)[C@@H]1C(=O)O : provide remaining at 0.5 h, 1 µM
49

###

Assay: in vivo
Set-up: species or system Wistar Han rats
Conditions: both sexes, Wistar Han, rat, po, 20 mg/kg
measuredProperty: AUC(0-inf) (ng·h/mL)
The answer is to be given in ng·h/mL; state only the numeric part.

Determine its reported AUC(0-inf): CC(C)[C@@H](C)[C@@]1(C)CC[C@]2(C)[C@H]3CC[C@@H]4[C@@]5(COC[C@@]4(C)[C@@H](OC[C@](C)(N)C(C)(C)C)[C@H](n4ncnc4-c4ccncc4)C5)C3=CC[C@@]2(C)[C@@H]1C(=O)O
20800

###

Experiment: In vitro metabolic stability in hepatic microsomes
Assay type: in vitro ADME, mouse
Details: female mouse liver microsomes, 1 μM; read-out: % remaining after 30 min
measuredProperty: remaining at 0.5 h, 1 µM (%)
# unit: % | format: bare number

Quick one: give measured remaining at 0.5 h, 1 µM for CC(C)[C@@H](C)[C@@]1(C)CC[C@]2(C)[C@H]3CC[C@@H]4[C@@]5(COC[C@@]4(C)[C@@H](OC[C@](C)(N)C(C)(C)C)[C@H](n4ncnc4-c4ccncc4)C5)C3=CC[C@@]2(C)[C@@H]1C(=O)O
88

###

Assay: in vivo
Set-up: species or system mice, rats, and dogs
Settings: female (mouse), both (rat), CD-1 (mouse), Wistar Han (rat), iv
Description: The pharmacokinetics and bioavailability of SCY-078 were evaluated in uninfected mouse, rat, and dog after p.o. and i.v. administration. The in vivo phases of the PK studies were performed at either […] […] The peak concentration (Cmax), the time to maximum concentration (Tmax), the half-life, and the AUC were determined from composite mean plasma concentration-time data for rodents and individual plasma concentration-time data for dogs. […]
measuredProperty: half-life

Tell me half-life reported for CC(C)[C@@H](C)[C@@]1(C)CC[C@]2(C)[C@H]3CC[C@@H]4[C@@]5(COC[C@@]4(C)[C@@H](OC[C@](C)(N)C(C)(C)C)[C@H](n4ncnc4-c4ccncc4)C5)C3=CC[C@@]2(C)[C@@H]1C(=O)O
5.5 to 8.7 h

###

Assay: in vivo
Design: species or system beagle dogs
Conditions: both sexes, beagle, dog, iv, 5 mg/kg
Procedure: The pharmacokinetics and bioavailability of SCY-078 were evaluated in uninfected mouse, rat, and dog after p.o. and i.v. administration. The in vivo phases of the PK studies were performed at either […] […] The peak concentration (Cmax), the time to maximum concentration (Tmax), the half-life, and the AUC were determined from composite mean plasma concentration-time data for rodents and individual plasma concentration-time data for dogs. […]
measuredProperty: AUC(0-inf)
Number first, unit second: that is the form wanted.

Give recorded AUC(0-inf). CC(C)[C@@H](C)[C@@]1(C)CC[C@]2(C)[C@H]3CC[C@@H]4[C@@]5(COC[C@@]4(C)[C@@H](OC[C@](C)(N)C(C)(C)C)[C@H](n4ncnc4-c4ccncc4)C5)C3=CC[C@@]2(C)[C@@H]1C(=O)O [SCY-078]
11900 ng·h/mL
